procedure.text: Animal pharmacokinetic studies in rats
Type: in vivo
measurement.parameters: rat, po; male rats, 5 mg/kg single intragastric administration, plasma; read-out: AUC0-inf
property.measured: AUC(0-inf) (ng·h/mL)

In [3]: df
Out[3]:
                                   compound  property_measured  value_reported
0  CN1CCN(c2ccc(Nc3ncc4c(F)c(C5CC5)n(-c5cccc(C(C)(C)O)n5)c4n3)cc2)CC1 [Example 57]         AUC(0-inf)            1080
1  Cc1cc2cnc(Nc3ccc(N4CCC(N5CCN(C)CC5)CC4)cc3)nc2n1-c1cccc(C(C)(C)O)n1 [Example 148]         AUC(0-inf)            1100

A = CN1CCN(C2CCN(c3ccc(Nc4ncc5cc(C6CC6)n(-c6cccc(C(C)(C)O)n6)c5n4)cc3)CC2)CC1 [Example 56]
B = CN1CCN(C2CCN(c3ccc(Nc4ncc5cc(C6CC6)n(-c6cccc(C(C)(C)O)n6)c5n4)cc3F)CC2)CC1 [Example 77]
# min-compare on AUC(0-inf) between A and B Could you answer with the label of the item you picked?
A
(A: 1420 ng·h/mL, B: 2340 ng·h/mL)

---

These records show IC50 for WEE1 kinase (Homo sapiens).
property.measured: IC50 (nM)

a = CCCc1c(F)c2cnc(Nc3ccc(N4CCN(C)CC4)cc3)nc2n1-c1cccc(N=S(C)(C)=O)n1
b = COc1cc(Nc2ncc3cc(C4CC4)n(-c4cccc(N=S(C)(C)=O)n4)c3n2)ccc1N1CCC(N2CCN(C)CC2)CC1
For the pair a and b , which member has the lower IC50 number? The response must carry the label of the picked entry.
a
(a: 0.57 nM, b: 0.98 nM)

A = CC(C)c1cc2cnc(Nc3ccc(N4CCN(C)CC4)cc3)nc2n1-c1cccc(C(C)(C)O)n1
B = CN1CCC2(CC1)CCN(c1ccc(Nc3ncc4c(F)c(C5CC5)n(-c5cccc(N=S(C)(C)=O)n5)c4n3)cc1)CC2
Identify the item whose IC50 is the smaller number: A or B Reply briefly: the label of your chosen item.
B
(B: 0.48 nM, A: 0.84 nM)

---

Test system: Human non-small cell lung cancer cells NCI-H1299
procedure.text: NCI-H1299 cell proliferation inhibition (CellTiter-Glo)
Assay type: cell-based
measurement.parameters: Homo sapiens, 72 h, cultured 3 days, table head NCI-H1975, method NCI-H1299
pIC50: −log10 of the molar value.
property.measured: pIC50

Answered cases to consult:
>>> df
                                   molecule  value_reported
0  CN1CCC2(CC1)CCN(c1ccc(Nc3ncc4c(F)c(C5CC5)n(-c5cccc(N=S(C)(C)=O)n5)c4n3)cc1)CC2            7.28
1  CN1[C@@H]2CC[C@H]1CN(c1ccc(Nc3ncc4cc(C5CC5)n(-c5cccc(N=S(C)(C)=O)n5)c4n3)cc1)C2            7.42
2  CN1CCN(C2CCN(c3ccc(Nc4ncc5c(F)c(C6CC6)n(-c6cccc(N=S(C)(C)=O)n6)c5n4)cc3F)CC2)CC1            7.20
3  CN1CC2(CCN(c3ccc(Nc4ncc5cc(C6CC6)n(-c6cccc(N=S(C)(C)=O)n6)c5n4)cc3)CC2)C1            7.10

I = CCCc1cc2cnc(Nc3ccc(N4CCC(N5CCN(C)CC5)CC4)cc3)nc2n1-c1cccc(N=S(C)(C)=O)n1
II = CCc1cc2cnc(Nc3ccc(N4CCN(C)CC4)cc3)nc2n1-c1cccc(N=S(C)(C)=O)n1
III = CCCc1c(F)c2cnc(Nc3ccc(N4CCN(C)CC4)cc3)nc2n1-c1cccc(N=S(C)(C)=O)n1
hey, can you rank those molecules up there by pIC50? biggest number first please Response field: labels, in requested order.
II, III, I
(II: 7.64, III: 7.37, I: 7.06)

P = CN1CCN(c2ccc(Nc3ncc4c(F)c(C5CC5)n(-c5cccc(N=S(C)(C)=O)n5)c4n3)cc2)CC1CO (centres unmarked)
Q = Cc1cc2cnc(Nc3ccc(N4CCC(N5CCN(C)CC5)CC4)cc3)nc2n1-c1cccc(N=S(C)(C)=O)n1
Could you kindly indicate whether P or Q has the higher pIC50 value? Answer by stating the label of the chosen item.
Q

1 = CCc1cc2cnc(Nc3ccc(N4CCN(CCN(C)C)CC4)cc3)nc2n1-c1cccc(N=S(C)(C)=O)n1
2 = CN1CCN(c2ccc(Nc3ncc4cc(C5CC5)n(-c5cccc(N=S(C)(C)=O)n5)c4n3)cc2F)CC1
Which has the smaller recorded pIC50, 1 or 2 ? When you have decided, please share the label of that item.
1
(1: 7.05, 2: 7.38)

Where do these numbers come from? They come from patent US20220194960A1.
